biological target: human cloned 5-HT6 receptors (Homo sapiens, UniProt P50406); test: 5-HT6 receptor affinity (procedures outlined in WO98/27081); assay type: binding
Sequence (P50406 whole entry): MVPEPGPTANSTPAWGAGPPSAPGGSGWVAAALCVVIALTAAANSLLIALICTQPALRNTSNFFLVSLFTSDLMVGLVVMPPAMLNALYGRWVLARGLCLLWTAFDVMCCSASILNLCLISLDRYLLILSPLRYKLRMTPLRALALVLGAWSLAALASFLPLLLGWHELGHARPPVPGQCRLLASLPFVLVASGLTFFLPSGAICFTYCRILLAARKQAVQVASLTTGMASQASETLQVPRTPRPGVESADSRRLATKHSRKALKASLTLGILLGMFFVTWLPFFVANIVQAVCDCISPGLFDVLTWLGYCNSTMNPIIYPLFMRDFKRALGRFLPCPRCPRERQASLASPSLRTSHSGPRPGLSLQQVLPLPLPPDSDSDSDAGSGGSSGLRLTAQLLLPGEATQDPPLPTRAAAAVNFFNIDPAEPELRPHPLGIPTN
pKi: −log10 of the molar value. Counter-ions that a name gives are not always drawn.
value_type: pKi

[[record]]
compound = "Clc1cccc(Cc2cnc3c(N4CCNCC4)cccc3c2)c1 [Example E1, hydrochloride]"
experimental_system = "human cloned 5-HT6 receptors (Homo sapiens, UniProt P50406)"
result = "> 7.50"

